PROCEDURE DETAILS: Phase 1 multiple ascending dose (MAD) pharmacokinetics with CSF collection in healthy volunteers
Format: in vivo, human
PROTOCOL CONDITIONS: male, human, plasma, oral, 135 mg, 135 mg MD Day 8, n = 8; plasma total; geometric mean; read-out: Cmax
Procedure: […] The ratio of unbound leriglitazone concentration in brain to unbound concentration in plasma (Kpu,u; Cb,u/Cp,u) was calculated dividing the unbound CSF Cmax by the unbound plasma Cmax. […]
Examples of compounds with documented Cmax follow.
Answer with a number only, understood to be in ng/mL.

CC(=O)c1ccc(CCOc2ccc(CC3SC(=O)NC3=O)cc2)nc1 (centres unmarked) :: 4150

Kindly review the next compound as well.
Notebook: CC(O)c1ccc(CCOc2ccc(CC3SC(=O)NC3=O)cc2)nc1 (centres unmarked) , Cmax read as 9500

The reported measurements were obtained from patent US20260207570A1.
